- System: DERL-7 (IL-2 2.5 ng/mL)
- METHOD SUMMARY: percent inhibition of viability; higher = more inhibition;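 note: normalised to DMSO-only wells as negative and benzethonium chloride as positive control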
- EXPERIMENTAL SETUP: 72 h; 10 nM
Record form. Attribute: percent inhibition of viability. Fill in for each entry.
Entry rule: numbers only, all in %.

Query: Using the record for N#CC[C@H](C1CCCC1)n1cc(-c2ncnc3[nH]ccc23)cn1 [Ruxolitinib] (max concentration tested 10000 nM) , report its percent inhibition of viability.
Reply: 20.8

Query: Return reported percent inhibition of viability; argument: Cc1sc2c(c1C)C(c1ccc(Cl)cc1)=N[C@@H](CC(=O)OC(C)(C)C)c1nnc(C)n1-2 [(+)JQ1] (max concentration tested 10000 nM)
Reply: 11.6

Query: Which percent inhibition of viability value is on record for COc1cc(N2CCC(N3CCN(C)CC3)CC2)ccc1Nc1ncnc(Nc2ccccc2S(=O)(=O)C(C)C)n1 [ASP3026] (max concentration tested 10000 nM) ?
Reply: -6.32

Query: I would be grateful if you could share the reported percent inhibition of viability for CC(C)(C)c1cc(NC(=O)Nc2ccc(-c3cn4c(n3)sc3cc(OCCN5CCOCC5)ccc34)cc2)no1 [Quizartinib] (max concentration tested 1000 nM) .
Reply: 0.07

Query: What does the data say about its percent inhibition of viability? Entry: CCc1cc2c(cc1N1CCC(N3CCOCC3)CC1)C(C)(C)c1[nH]c3cc(C#N)ccc3c1C2=O [Alectinib] (max concentration tested 1000 nM)
Reply: -1.59

Query: Look up percent inhibition of viability: Oc1ncnc2[nH]ncc12 [Allopurinol] (max concentration tested 10000 nM)
Reply: 4.75

---

Please respond with reported percent inhibition of viability for every item in the list.
- Test system: normal primary NK cells, pool 2 (3 donors) (IL-2 2.5 ng/mL)
- METHOD SUMMARY: percent inhibition of viability; higher = more inhibition
- EXPERIMENTAL SETUP: 72 h; 250 nM
Note: unit % is implicit; provide only the numeric part.

Query: percent inhibition of viability lookup needed for CC(C)(O)CC(=O)NCCn1ccc2ncnc(Nc3ccc(Oc4cccc(C(F)(F)F)c4)c(Cl)c3)c21 [TAK-285] (max concentration tested 2500 nM) , thanks.
Reply: -7.05

Query: Looking for the measured percent inhibition of viability of Cn1cc(-c2cnn3c(N)c(Br)c([C@@H]4CCCNC4)nc23)cn1 [MK-8776] (max concentration tested 2500 nM) , can you help?
Reply: -0.92

Query: Query (molecule): COc1ccc(CCc2nc3cc(-c4c(C)noc4C)ccc3n2C[C@H](C)N2CCOCC2)cc1Cl [SGC-CBP30] (max concentration tested 25000 nM) ; field requested: percent inhibition of viability
Reply: 8.85

Query: Find the recorded percent inhibition of viability belonging to O=C(Nc1ccc(OC(F)(F)F)cc1)c1sccc1NCc1ccnc2ccccc12 [OSI-930] (max concentration tested 2500 nM) and report it.
Reply: 7.78

---

- Tested on: YT (IL-2 2.5 ng/mL)
- METHOD SUMMARY: percent inhibition of viability; higher = more inhibition
- EXPERIMENTAL SETUP: 72 h; 100 nM
Please go through the items and note down their percent inhibition of viability.
Give just the numeric value; % need not be written.

Query: For N#CC[C@H](C1CCCC1)n1cc(-c2ncnc3[nH]ccc23)cn1 [Ruxolitinib] (max concentration tested 10000 nM) , what is its reported percent inhibition of viability?
Reply: 30.9

Query: Consider the compound shown here: CC1(C)CNc2cc(NC(=O)c3cccnc3NCc3ccncc3)ccc21 [Motesanib] (max concentration tested 10000 nM) What is its recorded percent inhibition of viability?
Reply: -1.24

Query: Value lookup for percent inhibition of viability; key = Nc1nccc(-c2c(-c3ccc(F)cc3)ncn2C2CCCCC2)n1 (max concentration tested 10000 nM)
Reply: 9.54

Query: Quick one: percent inhibition of viability for COC1=CC(c2cc3ccccc3[nH]2)=N/C1=C\c1[nH]c(C)cc1C [Obatoclax] (max concentration tested 10000 nM) ?
Reply: 1.63

Query: Quick one: percent inhibition of viability for CN1CCC(CNc2ccc3ncc(-c4cccc(OC(F)(F)F)c4)n3n2)CC1 [SGI-1776] (max concentration tested 10000 nM) ?
Reply: 2.24

Query: Name the recorded percent inhibition of viability for CCn1cc(-c2ccnc3[nH]c(-c4cccc(CN(C)C)c4)cc23)c(-c2ccc(NC(=O)N(C)C)cc2)n1 (max concentration tested 1000 nM) .
Reply: 19.1

Query: Quick one: percent inhibition of viability for C[C@@H](Oc1cc(-n2cnc3ccc(CN4CCN(C)CC4)cc32)sc1C(N)=O)c1ccccc1C(F)(F)F (max concentration tested 10000 nM) ?
Reply: 79.4

Query: Can you look up the measured percent inhibition of viability of Nc1nc(F)nc2c1ncn2[C@@H]1O[C@H](CO)[C@@H](O)[C@@H]1O [Fludarabine] (max concentration tested 10000 nM) for me?
Reply: 0.43

Query: Quick one: percent inhibition of viability of CN1CCN(c2ccc3nc(-c4c(N)c5c(F)cccc5[nH]c4=O)[nH]c3c2)CC1 [Dovitinib] (max concentration tested 10000 nM) ?
Reply: 2.9

Query: Quick one: percent inhibition of viability of CC(C)(C)c1cc(NC(=O)Nc2ccc(-c3cn4c(n3)sc3cc(OCCN5CCOCC5)ccc34)cc2)no1 [Quizartinib] (max concentration tested 1000 nM) ?
Reply: 8.06

Query: Could you tell me which percent inhibition of viability is on file for O=C(Cc1ccc(-c2ccc(OCCN3CCOCC3)cc2)cn1)NCc1ccccc1 [KX2-391] (max concentration tested 10000 nM) ?
Reply: 95.6

Query: GET /values?readout=percent inhibition of viability&item= CNC(=O)c1cc(Oc2ccc(NC(=O)Nc3ccc(Cl)c(C(F)(F)F)c3)c(F)c2)ccn1 [Regorafenib] (max concentration tested 10000 nM)
Reply: 3.65

Query: Please look up its percent inhibition of viability: Cc1cc(C)c(/C=C2\C(=O)Nc3ccccc32)[nH]1 [Semaxanib] (max concentration tested 10000 nM)
Reply: 0.26

Query: Consider the compound Cc1ccc(NC(=O)c2ccc(CN3CCN(C)CC3)cc2)cc1Nc1nc(-c2cccnc2)cs1 [Masitinib] (max concentration tested 10000 nM) and give its measured percent inhibition of viability.
Reply: -2.17

Query: Could you tell me which percent inhibition of viability is on file for CCCS(=O)(=O)Nc1ccc(F)c(C(=O)c2c[nH]c3ncc(-c4ccc(Cl)cc4)cc23)c1F [Vemurafenib] (max concentration tested 10000 nM) ?
Reply: 4.12

Query: Would you mind telling me what percent inhibition of viability value was observed for CC(C)[C@H]1C(=O)N[C@@H](CCCNC(=N)N)C(=O)NCC(=O)N[C@@H](CC(=O)O)C(=O)N[C@H](Cc2ccccc2)C(=O)N1C [Cilengitide] (max concentration tested 10000 nM) ?
Reply: -2

Query: // percent inhibition of viability lookup, key: COc1cc2c(Oc3ccc4[nH]c(C)cc4c3F)ncnc2cc1OCCCN1CCCC1 [Cediranib] (max concentration tested 1000 nM)
Reply: -2.55

Query: Recorded percent inhibition of viability of COc1cc(N2CCC(N3CCN(C)CC3)CC2)ccc1Nc1ncnc(Nc2ccccc2S(=O)(=O)C(C)C)n1 [ASP3026] (max concentration tested 10000 nM) , please.
Reply: 1.22

Query: Which percent inhibition of viability reading was recorded for the compound C[C@]1(c2nc3c(C(N)=O)cccc3[nH]2)CCCN1 [Veliparib] (max concentration tested 10000 nM) ?
Reply: 0.84

Query: Requested field: percent inhibition of viability. Item: Oc1ncnc2[nH]ncc12 [Allopurinol] (max concentration tested 10000 nM)
Reply: -5.69

Query: Need percent inhibition of viability, item COc1cc(C(=O)O)ccc1NC(=O)[C@@H]1N[C@@H](CC(C)(C)C)[C@](C#N)(c2ccc(Cl)cc2F)[C@H]1c1cccc(Cl)c1F [RG7388] (max concentration tested 10000 nM)
Reply: 38.6

Query: Would you kindly share the measured percent inhibition of viability for C#Cc1cccc(Nc2ncnc3cc(OC)c(OCCCCCCC(=O)NO)cc23)c1 [CUDC-101] (max concentration tested 10000 nM) ?
Reply: 9.37

Query: Query (compound): Nc1ccn([C@@H]2O[C@H](CO)[C@@H](O)[C@@H]2O)c(=O)n1 [Cytarabine] (max concentration tested 10000 nM) ; field requested: percent inhibition of viability
Reply: -0.65

---

- Tested on: normal primary NK cells, pool 1 (3 donors), resting (IL-2 0 ng/mL)
- METHOD SUMMARY: percent inhibition of viability; higher = more inhibition
- EXPERIMENTAL SETUP: 72 h; 1000 nM
Lab note: class by percent inhibition of viability, see 1 = under 10%, 2 = from 10% up to 20%, 3 = 20% and over

Query: Quick check: band for COc1cccc2cc(-c3nc([C@H]4CC[C@H](C(=O)O)CC4)n4ncnc(N)c34)[nH]c12 [OSI-027] (max concentration tested 10000 nM)
Reply: 2

Query: Into which category would you place O=C(Nc1cccnc1)N1CCC(Cc2cccc(Oc3ccc(C(F)(F)F)cn3)c2)CC1 [PF-3845] (max concentration tested 10000 nM) ?
Reply: 1

Query: Which class does CCc1cncnc1N1CCN(Cc2nc3ccc(C(F)(F)F)cc3[nH]2)CC1 (max concentration tested 10000 nM) fall in?
Reply: 2

Query: Pick a category. Item: COc1ccc(C2=N[C@@H](c3ccc(Cl)cc3)[C@@H](c3ccc(Cl)cc3)N2C(=O)N2CCNC(=O)C2)c(OC(C)C)c1 [Nutlin-3] (max concentration tested 10000 nM)
Reply: 3

Query: Entry Nc1ncn([C@@H]2O[C@H](CO)[C@@H](O)[C@H]2O)c(=O)n1 [Azacitidine] (max concentration tested 10000 nM) belongs to which category?
Reply: 1

Query: Lab log: CCn1c(=O)c(-c2cc[nH]n2)cc2c(C)nc(N)nc21 [Voxtalisib] (max concentration tested 10000 nM) — assign percent inhibition of viability category
Reply: 3

Query: # bin label for Nc1ccccc1NC(=O)c1ccc(CNC(=O)OCc2cccnc2)cc1 [Entinostat] (max concentration tested 10000 nM)
Reply: 3

Query: Field: class (percent inhibition of viability) — entry: Cc1cnc(Nc2ccc(OCCN3CCCC3)cc2)nc1Nc1cccc(S(=O)(=O)NC(C)(C)C)c1 (max concentration tested 10000 nM)
Reply: 3

Query: Hey, which category is O=C(O)CCCCC(CCSCc1ccccc1)SCc1ccccc1 (stereo not drawn) [CPI-613] (max concentration tested 10000 nM) in, do you know?
Reply: 2

Query: Sort Cc1ccc(F)c(NC(=O)Nc2ccc(-c3cccc4[nH]nc(N)c34)cc2)c1 [Linifanib] (max concentration tested 1000 nM) into one of the categories.
Reply: 1

Query: Hi, small favor: classify COCC(=O)NC/C=C/c1ccc2ncnc(Nc3ccc(Oc4ccc(C)nc4)c(C)c3)c2c1 (max concentration tested 10000 nM) by its percent inhibition of viability when you get a moment.
Reply: 3

Query: State the class of the molecule shown: C[C@]1(O)C[C@@H](c2nc(-c3ccc4ccc(-c5ccccc5)nc4c3)c3c(N)nccn32)C1 [Linsitinib] (max concentration tested 10000 nM)
Reply: 1

Query: Into which bin does this molecule go? O=C(/C=C/c1cccc(S(=O)(=O)Nc2ccccc2)c1)NO [Belinostat] (max concentration tested 10000 nM)
Reply: 3
